FYI, the data here is from patent US10815222B2.

Tested on: Bloodstream form of Trypanosoma brucei, strain Lister 427
Experiment: Trypanosoma brucei growth inhibition assay (CellTiter-Glo, 24 h)
Type: cell-based
Details: Trypanosoma brucei; T. Brucei Growth Inibition Assay, class symbols; read-out: T. Brucei GI EC50
pEC50: −log10 of the molar value.
quantity: pEC50

>>> result("COc1nc2ccccc2cc1-c1cnc(C2CN(CC3CCOC3)CCN2C(=O)CN2C(=O)c3ccccc3C2=O)[nH]1 (stereo not drawn)")
"6.00 to 6.29"
>>> result("COc1ccc2nc(C(F)(F)F)n(CC(=O)N3CC[C@H](NC4COC4)C[C@H]3c3ncc(-c4cc5ccccc5nc4OC)[nH]3)c2c1")
"> 7.00"
>>> result("COc1nc2ccccc2cc1-c1cnc(C2CN(CC3CCOC3)CCN2C(=O)CS(=O)(=O)c2ccccc2)[nH]1 (stereo not drawn)")
"5.30 to 6.00"
>>> result("COc1nc2ccccc2cc1-c1cnc([C@@H]2CN(C[C@H]3CCOC3)CCN2C(=O)Cn2c(C(F)(F)F)nc3ccccc32)[nH]1 (single isomer, unassigned)")
"> 7.00"
>>> result("COC(=O)CCCN1CCN(C(=O)Cc2c(C)[nH]c3ccc(OC)cc23)C(c2ncc(-c3ccc4ccccc4c3)[nH]2)C1 (stereo not drawn)")
"6.30 to 7.00"
>>> result("CCC(=O)CCCN1CCN(C(=O)Cc2c[nH]c3ncccc23)C(c2ncc(-c3cc4ccccc4nc3OC)[nH]2)C1 (stereo not drawn)")
"6.00 to 6.29"
>>> result("COc1ccc2nc(C)n(CC(=O)N3CCN(Cc4nccs4)C[C@H]3c3ncc(-c4cc5ccccc5nc4OC)[nH]3)c2c1")
"> 7.00"
>>> result("COc1nc2ccccc2cc1-c1cnc([C@@H]2CN(CC3CCOC3)CCN2C(=O)Cn2c(C(C)(C)C)nc3ccccc32)[nH]1 (stereo partly drawn)")
"> 7.00"

Now examine the next entry.
QUERY: Using the record for COc1nc2ccccc2cc1-c1cnc(C2COCCN2C(=O)Cc2c(C)[nH]c3ccc(F)cc23)[nH]1 (stereo not drawn) , report its pEC50.
RESULT: 6.00 to 6.29

* * *

System: Bloodstream form of Trypanosoma brucei, strain Lister 427
Experiment: Trypanosoma brucei growth inhibition assay (CellTiter-Glo, 24 h)
Format: cell-based
Details: Trypanosoma brucei; T. Brucei Growth Inibition Assay, class symbols; read-out: T. Brucei GI EC50
pEC50: −log10 of the molar value.
Recorded measurements of pEC50, one per entry

Answered examples (3):
>>> result("O=C(Cc1nc2ccccc2o1)N1CCN(CC2CCOC2)CC1c1ncc(-c2ccc3ccccc3c2)[nH]1 (stereo not shown)")
"6.00 to 6.29"
>>> result("COc1nc2ccccc2cc1-c1cnc(C2COCCN2C(=O)Cn2c(C)nc3ccccc32)[nH]1 (stereo not shown)")
"5.30 to 6.00"
>>> result("COc1nc2ccccc2cc1-c1cnc(C2CN(Cc3cnccn3)CCN2C(=O)Cc2c(C)[nH]c3ccc(F)cc23)[nH]1 (stereo not shown)")
"> 7.00"

QUERY: Using the record for COc1nc2ccccc2cc1-c1cnc(C2CN(C)CCN2C(=O)Cc2ccccc2)[nH]1 (stereo not shown) , report its pEC50.
RESULT: 5.30 to 6.00

QUERY: And what about the compound CN1CCN(C(=O)Cc2ccccc2F)C(c2ncc(-c3ccc4ccccc4c3)[nH]2)C1 (stereo not shown) ?
RESULT: 5.30 to 6.00

QUERY: And what about the compound COc1nc2ccccc2cc1-c1cnc([C@@H]2CN(Cc3ncco3)CCN2C(=O)Cn2c(C(F)(F)F)nc3ccccc32)[nH]1 ?
RESULT: > 7.00

QUERY: And what about the compound COc1nc2ccccc2cc1-c1cnc([C@@H]2CN(Cc3nccs3)CCN2C(=O)Cn2c(C(F)(F)F)nc3ccccc32)[nH]1 ?
RESULT: > 7.00

QUERY: And what about the compound CCn1cc(CN2CCC(c3ncc(-c4cc5ccccc5nc4OC)[nH]3)N(C(=O)Cn3c(C(F)(F)F)nc4ccc(OC)cc43)CC2)cn1 (stereo not shown) ?
RESULT: 6.00 to 6.29

QUERY: And what about the compound COc1ccc2nc(C(F)(F)F)n(CC(=O)N3CC[C@H](NC4CCC4)C[C@H]3c3ncc(-c4cc5ccccc5nc4OC)[nH]3)c2c1 ?
RESULT: > 7.00

QUERY: And what about the compound COc1nc2ccccc2cc1-c1cnc(C2CNCCN2C(=O)Cn2c(C)nc3ccccc32)[nH]1 (stereo not shown) ?
RESULT: 5.30 to 6.00

QUERY: And what about the compound COc1nc2ccccc2cc1-c1cnc([C@@H]2CN(Cc3ccccn3)CCN2C(=O)Cn2c(C(F)(F)F)nc3ccccc32)[nH]1 ?
RESULT: > 7.00

QUERY: And what about the compound COc1ccc2nc(C(F)(F)F)n(CC(=O)N3CCN(CCc4csc(C)n4)CCC3c3ncc(-c4cc5ccccc5nc4OC)[nH]3)c2c1 (stereo not shown) ?
RESULT: 6.30 to 7.00

QUERY: And what about the compound COc1nc2ccccc2cc1-c1cnc([C@@H]2CN(Cc3cocn3)CCN2C(=O)Cn2c(C(F)(F)F)nc3ccccc32)[nH]1 ?
RESULT: > 7.00

QUERY: And what about the compound CN1CCN(C(=O)Cc2cnc3ccccc3c2)C(c2ncc(-c3ccc4ccccc4c3)[nH]2)C1 (stereo not shown) ?
RESULT: 5.30 to 6.00

QUERY: And what about the compound CCC(=O)CCCN1CCN(C(=O)Cc2c(C)[nH]c3ccc(OC)cc23)C(c2ncc(-c3ccc4ccccc4c3)o2)C1 (stereo not shown) ?
RESULT: 5.30 to 6.00

QUERY: And what about the compound COc1nc2ccccc2cc1-c1cnc(C2CN(CC(C)C)CCN2C(=O)Cc2c(C)[nH]c3ccc(F)cc23)[nH]1 (stereo not shown) ?
RESULT: 6.30 to 7.00
